SYSTEM NAME: T1, mNeon PPM1H (full-length PPM1H with mNeon inserted into loop 1 at position 125) (human, UniProt Q9ULR3 1-514)
T1 construct: PPM1H phosphatase, human, full length; mNeon inserted into loop 1 (residues 115-133) at position 125; the plasmid is pET15b His SUMO mNeon PPM1H; His-SUMO removed by Ulp1 before gel filtration; also called WT PPM1H; HisSUMO-mNeon PPM1H; not shown: mNeon, internal (loop 1, at position 125), kept
T1 sequence (looked up): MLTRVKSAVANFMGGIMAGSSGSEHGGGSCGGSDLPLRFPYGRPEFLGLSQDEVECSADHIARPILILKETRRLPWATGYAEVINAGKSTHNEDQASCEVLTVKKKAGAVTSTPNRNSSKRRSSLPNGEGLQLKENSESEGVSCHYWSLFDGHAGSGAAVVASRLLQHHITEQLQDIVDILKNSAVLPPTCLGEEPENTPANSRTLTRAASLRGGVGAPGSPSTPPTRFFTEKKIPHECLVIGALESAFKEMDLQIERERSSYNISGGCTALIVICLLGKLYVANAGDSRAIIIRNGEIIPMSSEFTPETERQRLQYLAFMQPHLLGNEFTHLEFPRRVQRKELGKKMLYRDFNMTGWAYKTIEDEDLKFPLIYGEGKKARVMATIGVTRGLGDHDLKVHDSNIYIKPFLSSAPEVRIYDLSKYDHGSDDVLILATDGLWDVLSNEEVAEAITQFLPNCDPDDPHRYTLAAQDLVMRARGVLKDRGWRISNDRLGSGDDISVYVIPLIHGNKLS
PROTOCOL DESCRIPTION: MST; unlabelled Rab protein (16 serial dilutions) titrated against 100 nM fluorescent mNeon PPM1H variant; 30 min in the dark; Monolith NT.115; three independent measurements with different protein preparations
COND: both partners purified
MEASUREMENT KIND: Kd (nM)
Unit nM implied. Number only.

BINDER	U	Kd
Rab12 Q101L (full length, nonprenylated, nonphosphorylated) (natural protein, human, UniProt Q6IQ22-2 1-244, looked up, also called His SUMO Rab12 (full length) Q101L; source: E. coli, purified (TALON, Ulp1 cleavage, Superdex 200), 20 μM GTP in all buffers) MDPGAALQRRAGGGGGLGAGSPALSGGQGRRRKQPPRPADFKLQVIIIGSRGVGKTSLMERFTDDTFCEACKSTVGVDFKIKTVELRGKKIRLQIWDTAGLERFNSITSAYYRSAKGIILVYDITKKETFDDLPKWMKMIDKYASEDAELLLVGNKLDCETDREITRQQGEKFAQQITGMRFCEASAKDNFNVDEIFLKLVDDILKKMPLDILRNELSNSILSLQPEPEIPPELPPPRPHVRCC	nM	7400
Thiophosphorylated His Rab8A Q67L (natural protein, human, UniProt P61006 1-207, looked up, thiophosphorylated with ATPγS by MST3 kinase (fully modified by PhosTag gel); the residue is not given, Rab8A GTPase, full length, Q67L, thiophosphorylated form of m5; also called Thio-pRab8A (Q67L); thiophosphorylated Rab8A; source: E. coli, purified (TALON, Superdex 75); thiophosphorylated in vitro overnight at 4 °C by His-MST3 kinase with ATPγS) MAKTYDYLFKLLLIGDSGVGKTCVLFRFSEDAFNSTFISTIGIDFKIRTIELDGKRIKLQIWDTAGLERFRTITTAYYRGAMGIMLVYDITNEKSFDNIRNWIRNIEEHASADVEKMILGNKCDVNDKRQVSKERGEKLALDYGIKFMETSAKANINVENAFFTLARDIKAKMDKKLEGNSPQGSNQGVKITPDQQKRSSFFRCVLL	nM	1000

Given item Rab10 Q68L (full length, nonprenylated, nonphosphorylated) (natural protein, human, UniProt P61026 1-200, looked up, also called His SUMO Rab10 (full length) Q68L; untagged Rab10 Q68L; source: E. coli, purified (TALON, Ulp1 cleavage, Superdex 200), 20 μM GTP in all buffers) MAKKTYDLLFKLLLIGDSGVGKTCVLFRFSDDAFNTTFISTIGIDFKIKTVELQGKKIKLQIWDTAGLERFHTITTSYYRGAMGIMLVYDITNGKSFENISKWLRNIDEHANEDVERMLLGNKCDMDDKRVVPKGKGEQIAREHGIRFFETSAKANINIEKAFLTLAEDILRKTPVKEPNSENVDISSGGGVTGWKSKCC , the value recorded as its Kd is 1300
